Hello, the source for this data is patent US20260242478A1, in case you need it.

testedTarget: Anti-CD28 Fab (SEQ ID NOs: 696, 697)
Sequence (VH, as listed by the source, chain 1 of 2): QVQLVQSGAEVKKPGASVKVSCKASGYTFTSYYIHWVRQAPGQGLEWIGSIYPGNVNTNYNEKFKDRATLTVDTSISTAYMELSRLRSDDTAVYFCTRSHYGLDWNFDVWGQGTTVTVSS
Sequence (VL, as listed by the source, chain 2 of 2): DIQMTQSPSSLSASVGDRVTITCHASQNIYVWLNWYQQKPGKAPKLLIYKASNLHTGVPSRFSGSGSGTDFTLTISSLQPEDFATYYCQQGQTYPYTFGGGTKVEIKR
assayComment: phage binding ELISA; Fab-coated wells pre-incubated with CD28 antigen as competitor;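 further: clonal phage supernatants added to wells preincubated with CD28 antigen or blocking buffer only, bound phage detected with HRP-conjugated anti-M13 antibody, buffer-only wells as control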
Reported Anti-CD28 Fab signal in the presence of CD28 values for a set of binders
Format: numeric value only, no unit, no commentary.

SCAAGATYGWPECF [Phage-1597]    0.07
TCAAGATWLWPVCL [Phage-1593]    0.08
TCSAGAAWTWPLCF [Phage-1601]    0.06
SCAAGATWAWPACL [Phage-1598]    0.06
SCAAGAAWGWPACF [Phage-1592]    0.09
TCSAGALWEWPMCF [Phage-1603]    0.06
TCSAGAGYPWPTCL [Phage-1600]    0.06

Proceeding to the next binder to report its Anti-CD28 Fab signal in the presence of CD28.
**Query** Indicate its recorded Anti-CD28 Fab signal in the presence of CD28; the binder in question is TCSAGAAYEWPECF [Phage-1602]
**Result** 0.06
